System: Plasmodium falciparum Sir2 (PF13_0152, Sir2A)
Experiment: pfSir2 binders on small-molecule microarrays, primary screen, biochemical, small-molecule microarray, 635 nm fluorescence (AID 1098);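 also: score merges spot fluorescence intensity with its signal-to-noise ratio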
Conditions: small-molecule microarray binding, fluorescence 635 nm; higher = more signal
composite z-score listing for selected compounds.
EXPERIMENTAL_ENDPOINT: composite z-score

1) NCCCCCNC(=O)[C@H]1C[C@H]2C(=O)NCC(=O)N2[C@H]1c1ccc(O)cc1 :: 1.02
2) CC(C)CCC[C@@H](C)[C@H]1CC[C@@]2(C)C3=C(CC[C@]12C)[C@@]1(C)CC[C@H](OC(=O)CCl)C(C)(C)C1CC3 (some centres not stated) :: 0.346
3) CCCNC(=O)[C@@]1(Sc2ccc(C)cc2)CC(=O)N(Cc2cc(C(F)(F)F)cc(C(F)(F)F)c2)[C@@H]1c1ccc(CO)cc1I :: 1.24
4) O=C1O[C@@H](c2ccccc2)[C@@H](c2ccccc2)N2[C@@H](c3ccc(OCCO)cc3)[C@]3(C(=O)Nc4ccc(C#CC5(O)CCCCCC5)cc43)[C@@H](C(=O)NC[C@H](O)c3ccccc3)[C@H]12 :: 1.37
5) CC(C)C[C@@H]1NC(=O)[C@@]23C(=O)N[C@@H](Cc4ccccc4)C2[C@H](C)[C@@]2(C)O[C@H]2C3/C=C/C/C=C\CNC(=O)[C@H](Cc2ccccc2)NC1=O (some centres not stated) :: 0.608
6) [N-]=[N+]=NCc1ccccc1C[C@@]1(C(=O)NCc2ccccc2)N=C(c2ccc(OCCCO)cc2)O[C@@H]1c1ccccc1 :: 0.92
7) CCN(CC)c1ccc(N2CC=CC34O[C@@H]5C=CCOC(=O)[C@@H]5[C@H]3C(=O)N(C(CO)C(C)C)[C@@H]4C2=O)cc1 (some centres not stated) :: -0.0952

All values here come from PubChem BioAssay.
